Target: wild type ALAS2 (Homo sapiens, UniProt P22557)
Construct: MBP (TEV-cleavable) (C, cleaved yes); made in house; host or cells: E. coli
Assay: General IC50 assay, version 1 (5 ug/mL ALAS2), ALA by mass spectrometry
Format: biochemical
Details: version 1 assay: 5 ug/mL ALAS2, 0 uM PLP, 1 h reaction; read-out: IC50 (uM) ALAS2 v1; 0 uM PLP
readout.type: IC50

Examples with their reported IC50 follow.
Would you mind telling me what IC50 value was observed for CCN(N)c1nnn[nH]1 [Compound 63] ?
> 50 µM

And then NNc1cc(C(F)(F)F)n[nH]1 [Compound 28] , what is it?
10 to 50 µM

---
Bench note: what IC50 did NNc1n[nH]nc1C(F)(F)F [Compound 39] show?
< 10 µM

And Cn1cnnc1NN [Compound 58] ?
> 50 µM

Entry to check: NNc1ccn(CC(F)F)n1 [Compound 33]
10 to 50 µM

Entry NNc1ccn(-c2ccccc2)n1 [Compound 10] please
10 to 50 µM

Record: CN(N)c1nnn[nH]1 [Compound 64]
< 10 µM

Then Cc1nc(C#N)c(NN)o1 [Compound 52] ?
> 50 µM

What do you get for NNc1nc(-c2ccncc2)no1 [Compound 20] ?
< 10 µM

====

Biological target: wild type ALAS2 (Homo sapiens, UniProt P22557)
Construct: MBP (TEV-cleavable) (C, cleaved yes); made in house; host or cells: E. coli
Experiment: General IC50 assay, version 1 (5 ug/mL ALAS2), ALA by mass spectrometry
Format: biochemical
Details: version 1 assay: 5 ug/mL ALAS2, 0 uM PLP, 1 h reaction; read-out: IC50 (uM) ALAS2 v1; 0 uM PLP
Below: a set of entries, each annotated with reported IC50.

Worked set:
Which value of IC50 has been reported for Cc1nc(NN)sc1C(=O)O [Compound 54] in the records?
10 to 50 µM

Repeat for the following molecule: NNc1ncc(C(=O)O)s1 [Compound 49]
> 50 µM

Moving on to NNc1nnc(C(F)(F)F)[nH]1 [Compound 44]
< 10 µM

Consider next the molecule NNc1nnc(-c2ccccc2)s1 [Compound 27] in the same way.
< 10 µM

Also check NNc1nc(-c2ccccc2)no1 [Compound 21]
< 10 µM

Next:
Please report the recorded IC50 for CN(N)c1nnnn1Cc1ccccc1 [Compound 65] .
> 50 µM

Here is the next molecule: N#Cc1cnc(NN)s1 [Compound 48]
10 to 50 µM

Can you handle CN(N)c1n[nH]nc1C(F)(F)F [Compound 37] next?
10 to 50 µM

Would you mind doing Cc1ccccc1-c1nnc(NN)[nH]1 [Compound 11] as well?
< 10 µM

Same again, this time with NNc1ccn(CC(F)(F)F)n1 [Compound 31]
> 50 µM

====

Target: wild type ALAS2 (Homo sapiens)
Construct: MBP (TEV-cleavable) (C, cleaved yes); made in house; host or cells: E. coli
Sequence (P22557 79-587): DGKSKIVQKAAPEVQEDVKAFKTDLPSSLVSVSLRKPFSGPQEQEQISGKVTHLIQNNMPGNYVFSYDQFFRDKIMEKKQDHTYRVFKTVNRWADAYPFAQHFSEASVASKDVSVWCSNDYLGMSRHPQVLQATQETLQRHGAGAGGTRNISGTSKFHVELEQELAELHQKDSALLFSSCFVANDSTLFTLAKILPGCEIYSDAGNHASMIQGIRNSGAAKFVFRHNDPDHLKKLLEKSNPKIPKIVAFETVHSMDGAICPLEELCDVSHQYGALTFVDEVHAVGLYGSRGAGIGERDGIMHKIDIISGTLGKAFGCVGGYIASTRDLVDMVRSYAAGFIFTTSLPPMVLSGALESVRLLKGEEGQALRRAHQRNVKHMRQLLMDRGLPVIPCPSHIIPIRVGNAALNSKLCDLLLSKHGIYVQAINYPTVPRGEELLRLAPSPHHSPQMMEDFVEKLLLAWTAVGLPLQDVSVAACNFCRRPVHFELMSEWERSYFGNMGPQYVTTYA
Assay: General IC50 assay, version 1 (5 ug/mL ALAS2), ALA by mass spectrometry
Format: biochemical
Conditions: version 1 assay: 5 ug/mL ALAS2, 0 uM PLP, 1 h reaction; read-out: IC50 (uM) ALAS2 v1; 0 uM PLP
Procedure: The exemplified compounds in Table I were tested in vitro against the wild type ALAS2. As described in Example 38, two concentrations of ALAS2 were used: 5 ug/mL ALAS2 (for the version I assay) and 2 ug/mL (for the version 2 assay). […] Measurement of ALA concentration by high throughput mass spectrometry: ALA was monitored in positive mode on a Sciex QTRAP 6500 connected to a Shimadzu 20AD LC using the conditions outlined in the table below. […]
readout.type: IC50

See these solved cases before continuing.
So what's the measured IC50 for this one? NNc1nc(-c2ccc(F)cc2)no1 [Compound 8]
10 to 50 µM

Item: CCCN(N)c1nnn[nH]1 [Compound 60]
> 50 µM

And for NNc1nc(-c2ccc(N)cc2)cs1 [Compound 17] ?
> 50 µM

More entries:
Give the measured IC50 of COCc1cnc(NN)s1 [Compound 41] .
> 50 µM

Would you mind doing COc1ccc(-c2nnc(NN)s2)cc1 [Compound 24] as well?
10 to 50 µM

Another molecule to check: NNc1nnc(C2CCC2)[nH]1 [Compound 12]
> 50 µM

How about CN(N)c1n[nH]c(=O)[nH]1 [Compound 43] ?
< 10 µM

// query: NNc1nc(-c2ccccc2)cs1 [Compound 26]
> 50 µM

Next molecule: NNc1nnc(O)[nH]1 [Compound 50]
> 50 µM

Same again, this time with NNc1nnco1 [Compound 47]
> 50 µM

Same again, this time with NNc1nnc(C(F)(F)F)s1 [Compound 29]
< 10 µM

Likewise for NNc1nnnn1-c1ccccc1 [Compound 15] ?
> 50 µM

Entry to check: NNc1nc(CO)cs1 [Compound 53]
10 to 50 µM

Try the molecule NN(c1nnn[nH]1)C1CC1 [Compound 61]
> 50 µM

Continue with NNc1nc(-c2ccccn2)no1 [Compound 6]
10 to 50 µM

Param item: NNc1ccn(CC(=O)O)n1 [Compound 35]
< 10 µM

What do we get for NNc1nc(N2CCOCC2)n[nH]1 [Compound 14] ?
10 to 50 µM
